Target: T1, recombinant human LILRB2-His (human, UniProt Q8N423 22-461, limits assumed)
T1 construct: Bought protein; also called LILRB2 protein
T1 sequence (Q8N423 22-461 limits assumed): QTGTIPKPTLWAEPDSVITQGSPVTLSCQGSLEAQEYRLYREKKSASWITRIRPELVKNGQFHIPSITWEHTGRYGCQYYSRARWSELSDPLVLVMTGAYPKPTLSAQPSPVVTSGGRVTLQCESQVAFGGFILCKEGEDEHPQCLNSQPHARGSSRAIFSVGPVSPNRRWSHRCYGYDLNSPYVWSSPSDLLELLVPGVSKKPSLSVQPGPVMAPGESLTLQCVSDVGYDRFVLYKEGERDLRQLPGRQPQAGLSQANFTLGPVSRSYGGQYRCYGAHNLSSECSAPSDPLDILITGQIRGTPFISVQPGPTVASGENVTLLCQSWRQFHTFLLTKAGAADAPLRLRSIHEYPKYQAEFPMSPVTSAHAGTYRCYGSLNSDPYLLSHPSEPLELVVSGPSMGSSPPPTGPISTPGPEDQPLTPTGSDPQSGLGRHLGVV
Test: MSD ELISA, coated antigen, transfection supernatant
Experimental: To confirm binding to human LILRB1 and human LILRB2, transfection supernatants (obtained in Example 2) were evaluated for binding by ELISA. […] A plate-based MSD ELISA was performed in which human LILRB1-His or LILRB2-His was immobilized, and binding of transfection supernatants of humanized mAb variants was detected via an anti-human IgG Sulfo-tag-labeled secondary antibody. […]
Measurement Name: EC50 (ng/mL)
Write the number in ng/mL without appending the unit.

## Task Specify reported EC50 for the binder shown: B21H4-41 (antibody, human IgG4 S228P, kappa, V domains shown, humanized IgG4/kappa, VH4+VL1; transfection supernatant) VH: EVQLVESGGGLVQPGGSLRLSCAASGFSLNTYAMTWVRQAPGKGLEWISIIVASGGTYYASWAKGRFTISRDNAKSSVYLQLTSLTTEDTAVYYCARGGMGSDWGESLDAFDPWGQGTMVTVSS VL: DIQMTQSPSTLSASVGDRVTITCQASGNIYSFLAWYQQKPGKAPKLLIYTASNLETGVPSRFSGSGSGTEYTLTISSLQPDDFATYYCLGGLYSSDVSYAFGPGTKVEIKR
## Result 1.38

## Task Specify reported EC50 for the binder shown: B21H4-51 (antibody, human IgG4 S228P, kappa, V domains shown, humanized IgG4/kappa, VH5+VL1; transfection supernatant) VH: QVQLEESGGRLVQPGTSLRLSCAVSGFSLNTYAMTWVRQAPGKGLEWIGIIVASGGTYYASWAKGRFTISRDTSKNTLYLQITSLRAEDTATYFCARGGMGSDWGESLDAFDPWGQGTLVTVSS VL: DIQMTQSPSTLSASVGDRVTITCQASGNIYSFLAWYQQKPGKAPKLLIYTASNLETGVPSRFSGSGSGTEYTLTISSLQPDDFATYYCLGGLYSSDVSYAFGPGTKVEIKR
## Result 2.51

## Task Specify reported EC50 for the binder shown: B21H4-44 (antibody, human IgG4 S228P, kappa, V domains shown, humanized IgG4/kappa, VH4+VL4; transfection supernatant) VH: EVQLVESGGGLVQPGGSLRLSCAASGFSLNTYAMTWVRQAPGKGLEWISIIVASGGTYYASWAKGRFTISRDNAKSSVYLQLTSLTTEDTAVYYCARGGMGSDWGESLDAFDPWGQGTMVTVSS VL: DVVMTQSPSTVSASVGDRVTLTCQASGNIYSFLAWYQQKPGQPPKLLIYTASNLETGVPDRFSGSGSGTDYTLTISSLQADDFATYYCLGGLYSSDVSYAFGQGTKVEIKR
## Result 1.63
